The reported measurements were obtained from patent US20210363269A1.

# target_or_test_system: T1, human SIRP-α v2 D1 domain (human)
# T1 construct: also called human v2
# T1 sequence (chain, as listed by the source limits assumed): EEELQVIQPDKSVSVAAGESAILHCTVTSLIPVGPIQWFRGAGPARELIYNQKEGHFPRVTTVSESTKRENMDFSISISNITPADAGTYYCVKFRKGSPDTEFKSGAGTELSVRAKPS
# assay_overview: SPR, Langmuir fit
Task for the reader: assign each of the following binders its reported koff.
Entry rule: numbers only, all in s⁻¹.

The binder listed as S201 (scFv, V domains shown) VH: DVQLVESGGAVVRPGETLRLSCTASGFTFSSYAMSWVRQAPGKGLEWVSGISASGSDTYYADSVKGRSTISRDNSKNTLYLRMSSLTAEDTAVYYCARETWNHLFDYWGLGTLVTVSS VL: ALTQPASVSANPGETVKITCSGGGTSSYYGWYQQKSPGSAPVTLIHSDDKRPSDIPSRFSGSASGSTATLTITGVQVEDEAVYYCGGYDYTTYVNTFGAGTTLTVL has a reported koff of 4.27e-05

The binder listed as S55 (scFv, V domains shown, also called clone 55) VH: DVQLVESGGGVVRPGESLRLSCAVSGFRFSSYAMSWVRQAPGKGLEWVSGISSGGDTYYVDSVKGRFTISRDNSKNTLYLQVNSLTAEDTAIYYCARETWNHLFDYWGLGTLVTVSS VL: ALTQPASVSANLGETVEITCSGGDSSSHYYGWYQQKSPGSAPVTVIYSDDERPSDIPSRFSGSASGSTATLTITGVRVEDEAIYYCGAYDGSTYANTFGAGTTLTVL has a reported koff of 7.16e-05
